Data provenance is patent US20110123544A1.

Target: T1, recombinant human interleukin 12 (p40/p35 heterodimer) (human, UniProt P29460 23-328; P29459 23-219)
T1 chain 1: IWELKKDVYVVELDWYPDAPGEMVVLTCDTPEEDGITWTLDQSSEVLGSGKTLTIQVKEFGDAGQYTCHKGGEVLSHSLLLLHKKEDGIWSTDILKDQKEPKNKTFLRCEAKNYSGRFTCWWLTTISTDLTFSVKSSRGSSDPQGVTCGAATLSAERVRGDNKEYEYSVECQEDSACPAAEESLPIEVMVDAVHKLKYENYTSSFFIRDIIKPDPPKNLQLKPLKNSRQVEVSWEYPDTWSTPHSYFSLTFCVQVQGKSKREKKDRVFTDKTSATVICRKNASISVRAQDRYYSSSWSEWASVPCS
T1 chain 2: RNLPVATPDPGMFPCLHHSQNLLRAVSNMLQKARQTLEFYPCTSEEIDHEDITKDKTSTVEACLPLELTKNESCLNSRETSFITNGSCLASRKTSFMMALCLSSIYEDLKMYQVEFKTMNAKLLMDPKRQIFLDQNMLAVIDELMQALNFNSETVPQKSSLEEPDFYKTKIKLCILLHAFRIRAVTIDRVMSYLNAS
Assay: BIAcore
reported.metric: koff (s⁻¹)
// note: answer is a bare numeric in s⁻¹

Measured koff, HGSHRN [Y61 H101 R] : 0.0011

Measured koff, LGSHDN [Y61 H95 L] : 0.00147

Measured koff, KGSHDN [Y61 H95 K] : 0.00228

Measured koff, HGSVDN [Y61 H98 V] : 0.000293
